Where do the numbers come from? From the nanobody polyreactivity screen of Harvey et al. (2022).

experimentSummary: yeast display, Sf9 membrane polyspecificity reagent, FACS + sequencing; frameworks hold sequencing errors
quantityName: polyreactivity (PSR sort gate)

QVQLVESGGGLVQAGGSLRLSCAASGITFFRNAMGWYRQAPGKERELVAVITYSGGRTSYADSVKGRFTISRDNAKNTVYLQMNSLKPEDTAVYYCATEKWQSSPGYTYYFVEYDYWGQGTQVTVSS	low polyreactivity
QVQLQESGGGLVQAGGSLRLSCAASSNHSTLDVMGWYRQAPGKEREIVASIGSGGITNYADSVKGRFTISRDNAKNTVYLQMNSLKPEDTAVYYFAVLNQAYTDLIYWGQGTQVTVSS	high polyreactivity
QVQLVESGGGLVQAGGRLRLSCAASGHIFWGYAMGWSRQAPGKERELVAAITSGGNTNYADSVKGRFTISRDNAKNTVYLQMNSLKPEDTAVYYCAKRTRPWRDFDYWGQGTQVTVSS	low polyreactivity
QVQLVESGGGLVQAGGSLRLSCAASGITFRYNAMGWYRQAPGKERELVAAITFSGGSTYYADSVKGRFTISRDNAKNTVNLQMNSLKPEDTAVYYCAKLGSTSSRGNYDYWGQGTQVTVSS	low polyreactivity
QVQLVESGGGLVQAGGSLRLSCAASGSIFPVYAMGWYRQAPGKDRELVAAISFSTGSTYYADSVKGRFTISRDNAKNTVYLQMNSLKPEDTAVFYCAKYDYTDYEYWGQGTQVTVSS	high polyreactivity
QVQLVESGGGLVQAGGSLRLSCAASGSTIYGYAMGWYRQAPGKERELVAAISWSGGRTYYADSVKGRFTISRDNAKNTVYLQMNSLNPVDTAVYYCNTLRRLTGRYGWSSKYYYWGQGTQVTVSS	high polyreactivity
QVQLVESGGGLVQAGGSLRLSCAASGFTFGPNTMGWYRPAPGKERELVAAISARGGRTYYADSVKGRFTISRDNAKNTVYLQMNSLKPEDTAVYYCAAPGYVRTGVTYGGYYWGQGTQVTVSS	high polyreactivity
QVQLVESGGGLVQAGGSLRLSCAASGNIFFTNAMGWYRQAPGKERELVATISFRGTSTYYADSVKGRFTISRDNAKKTVYLQMNSLKPEDTAVYYCAARYSVFHRARVNLLGWGLYYWGQGTQVTVSS	low polyreactivity

In one line, give reported polyreactivity (PSR sort gate) of the entry QVQLVESGGGLVQAGGSLRLSCAASGRIFRHKAMGWYRQAPGKETELVAAITSRGGTYYADSVKGRFTISRDNAKNTVYLQMNSLKPEDTAFYFCNADQALYSSGNKYDYWGQGTQVTVSS .
low polyreactivity

Respond only with polyreactivity (PSR sort gate) recorded for QVQLVESGGGLVQAGGSLRVSCAASGFIFPGNAMGWYRQAPGKERELVAAISNSGSRTYYADSVKGRFTISRDNAKNTVYLQMNSLKPEDTAVYYCNADVHNRGWPYDYWGQGTQVTVSS
low polyreactivity

Report polyreactivity (PSR sort gate) for QVQLVESGGGLVQAGGSLRLSCAASGLIFYDNMGWSRQAPGKERELVAAISSSGGSTSYADSVKGRFTISRDNAKNTVYVQMNSLKPVDTAVYYCAADSYPAYLGFVGFDYWGQGTQVTVSS
low polyreactivity

---

experimentSummary: yeast display, Sf9 membrane polyspecificity reagent, FACS + sequencing; frameworks hold sequencing errors
quantityName: polyreactivity (PSR sort gate)

Answered examples (10):
QFHLVESGGRLVQAGGSLRLSCAASGRIFYYYVMGWYRQAPGKERELVAVIDWSGGSTYYADSVKGRFTISRDNAKNTVYVQMNSLKPEDTAVYYCAKVWLNFSLAYEDYDYWGQGTQVTVSS	low polyreactivity
QVQLVESGGGLVQAGGSLRLSCAASGSTFDYYTMGWYRQAPGKERELVAAINSSGGRTYYADSVKGRFTISRDNAKNTDYLQMNSLKPEVTAVYYCARTRSVYGYDYWGQGTQVTVSS	high polyreactivity
QFQLVESGGGLVQAGASLRLSCAASGSTFVRYAMGWYRQAPGKERDLVAAITWTGGITYYADSVKGRFTISRDNAKNTVYLHMNSLKPEDTAVYYCIAEQKQYEKSYDYWGQGTQVTVSS	low polyreactivity
QGQLVESGGGLVQAGGSLRLSCAASGRTFGYYAMRWYRQARGKERELVAVITRSGGTTYYADSVKGRFTISRDNAKNTVYLQMKSLKPEDTAVYYCHPAYYTGMYWGQGTQVTVSS	high polyreactivity
QVQLVDSGGGLVQAGGSLRLSCGASGLIFKYNVMGWYRQAPGKERELVAAITWGGTRTYYADSVKGRFTISRDTAKNTVYLQMNSLKPEDTAVYYCAVRSARIERNYWGQGTQVTVSS	low polyreactivity
QVQLVESGGGLVQAGGSLRLSCAASGSIFGVYAMGLYRQAPGKERELVASIDTSTGSTYYADSVKGRFTISRDNAKNTVYLQMNSLKPEDTAVYYCNADVGYYFTFEYWGQGTQVTVSS	high polyreactivity
QVQLVESGGGLVQAGVSLRLSCAASGFTIKLYAMGWYRQAPGKERELVAAISSSGGSTYYADSVKGRFTISRDNAKNTVYLQMISLKPEDTAVYYCAARTRHVHYGYWGQGTQVTVSS	high polyreactivity
QVQLVESGGGLVQAGGSLRLSCAASGGTFPYNAMGWYRQAPGKERELVAAISSSGTSTYYADSVKGRFTISRDNAKNTVYLQMNSLKPEDTAVYYCNDYFKRYDYWGQGTQVTVSS	high polyreactivity
QVQLVESGGGLVQAGGSLRLSCAASGFLFYYYAMGWYRQAPGKEREFVAAIRWNGGSTYYADSVKGRFTISRDNAKNTVYLQMNSLKPEDTAVYYCAAVWVQTTYADLYKYYYWGQGTQVTVSS	low polyreactivity
QVQLVESGGGLVQAGGILRLICADSGSTFAQYAMGWYRPAPGKERELVAAISRLGASTYYAYSVKGRFTISRDIAKNTVYLQMNSLKPEDTVVYYCNAVRGEKMGYWGQGTQVTVSS	high polyreactivity

Next:
Note down polyreactivity (PSR sort gate) recorded for QVQLVESGGGLVQAGGSLRLSCAASGRIFVRYAMGWYRQAPGKERELVAAISSRGGTTYYADSVKGRFTISRDNAKNTVYLQMNSLKPEDTAVYYCAALYDSTYGGVLFDYWGQGTQVTVSS
low polyreactivity
